Test system: Plasmodium falciparum
protocol-summary: GSK_TCMDC: Inhibition of Plasmodium falciparum 3D7 in whole red blood cells, using parasite LDH activity as an index of growth. Test compounds present at 2uM
Type: functional
Please provide measured Inhibition for the entries that follow.
// return numeric value only (unit: %, not printed)

Query string: Give Inhibition (Plasmodium falciparum) of the following compound: COc1cc(Cc2cnc(N)nc2N)ccc1OCc1ccc(-c2csnn2)cc1
Result string: 97

Query string: Give Inhibition (Plasmodium falciparum) of the following compound: N=C(N)NC(=O)Nc1ccc(Cl)c(Cl)c1
Result string: 95

Query string: Give Inhibition (Plasmodium falciparum) of the following compound: CCN(CC)CCN(Cc1ccc(-c2ccc(C(F)(F)F)cc2)cc1)C(=O)Cn1cc(Cc2cnn(C)c2)c(=O)nc1/C=C/c1cccc(F)c1F.O=C(O)C(O)C(O)C(=O)O
Result string: 95

Query string: Give Inhibition (Plasmodium falciparum) of the following compound: CCOc1ccc2c(c1)C(C)(c1ccc3c(c1)C(C)CC(C)(C)N3)CC(C)(C)N2 (stereo not given)
Result string: 94

Query string: Give Inhibition (Plasmodium falciparum) of the following compound: Cc1nc2nc(N)nc(N)c2c(C)c1Cc1ccc(C#N)cc1.Cl
Result string: 96

---

Tested on: HepG2
protocol-summary: GSK_TCMDC: Percent inhibition of human HepG2 cell line. Test compounds present at 10uM.
Format: functional
Class (by Inhibition) -- lower bin: < 10%; middle bin: ≥ 10% and < 40%; upper bin: ≥ 40%

Query string: Which Inhibition band matches Cc1ccccc1OCC(=O)Nc1ccc(-c2nc3cc4ccccc4cc3[nH]2)cc1 ?
Result string: middle bin

Query string: Which Inhibition band matches COc1cc(NCC2(CNCc3cn(Cc4ccccc4)c4ccccc34)CCCCC2)nc2ccccc12.Cl ?
Result string: upper bin

Query string: Which Inhibition band matches CC12CCC(CN(CC(O)Cn3c4ccccc4c4cc(I)ccc43)C1)C2(C)C.Cl (centres undefined) ?
Result string: lower bin

Query string: Which Inhibition band matches Nc1ccnc(N2CCC(CCOc3cc(C(F)(F)F)nc4c(C(F)(F)F)cccc34)CC2)c1 ?
Result string: middle bin

Query string: Which Inhibition band matches Cc1cc(NCc2ccccc2)nc(NCc2ccccc2)n1 ?
Result string: middle bin

Query string: Which Inhibition band matches COc1cc(SC)c(Br)cc1-c1nc2ccncc2[nH]1 ?
Result string: lower bin

Query string: Which Inhibition band matches O=C(O)C(F)(F)F.c1cc(CNCc2ccc3c(c2)OCO3)cc(-c2cccc(CNc3ccc4ncccc4c3)c2)c1 ?
Result string: middle bin

Query string: Which Inhibition band matches CCc1ccc(-c2nc3cc(NC(=O)c4cc([N+](=O)[O-])cc([N+](=O)[O-])c4)ccc3o2)cc1 ?
Result string: middle bin

Query string: Which Inhibition band matches O=C(c1cccc(-c2cccc(-c3nc4cc(C(F)(F)F)ccc4[nH]3)c2)c1)N1CCCCC1CN1CCC(O)C1 (centres undefined) ?
Result string: upper bin

---

Test system: Plasmodium falciparum
protocol-summary: GSK_TCMDC: Inhibition of Plasmodium falciparum 3D7 in whole red blood cells, using parasite LDH activity as an index of growth. Test compounds present at 2uM
Type: functional
Please provide measured Inhibition for the entries that follow.
// return numeric value only (unit: %, not printed)

Query string: Need Inhibition of CCNc1cc(C(=O)N[C@@H](Cc2ccccc2)[C@H](O)CNC2(CC(C)C)CC2)cc(N2CCCCS2(=O)=O)c1.Cl , thanks.
Result string: 87

Query string: Need Inhibition of Cc1cc(N[C@@H](Cc2ccccc2)C(=O)NCCc2ccccc2)nc(NCCc2ccc(F)cc2)n1.O=C(O)C(F)(F)F , thanks.
Result string: 99

Query string: Need Inhibition of Cc1cccc(NC(=O)c2ccc(C(=O)NC3CCN(CC4CCCCC4)C3)cc2)c1.O=C(O)C(F)(F)F (stereo not given) , thanks.
Result string: 88

Query string: Need Inhibition of CC(=O)Nc1ccc(C(=O)NC2CCN(c3ccnc4cc(Cl)ccc34)C2)cc1.O=C(O)C(F)(F)F (stereo not given) , thanks.
Result string: 100

Query string: Need Inhibition of CS(=O)(=O)c1cccc(-c2cnc(N)c3cc(-c4ccc5c(c4)OCO5)ccc23)c1.O=CO , thanks.
Result string: 91

Query string: Need Inhibition of O=C(O)C(F)(F)F.c1cc(-c2ccc(CN3CCN(c4ccncc4)CC3)cc2)cc(-c2nc3ccccc3[nH]2)c1 , thanks.
Result string: 100

Query string: Need Inhibition of CC(=O)Oc1c(C2CCN(CCCCNC(=O)c3ccc(NC(=O)c4ccc(Cl)cc4)cc3)CC2)ccc2ccccc12 , thanks.
Result string: 100

Query string: Need Inhibition of COc1cccc(CN2CCCC(OC(c3ccccc3)c3ccccc3)C2)c1O.O=C(O)C(F)(F)F (stereo not given) , thanks.
Result string: 90

Query string: Need Inhibition of COc1ccccc1C1CCN(C2CCC(NC(=O)/C=C/c3cc(C(F)(F)F)cc(C(F)(F)F)c3)CC2)CC1 (stereo not given) , thanks.
Result string: 92

Query string: Need Inhibition of CC1(C)N=C(N)N=C(N)C1c1ccc(Cl)cc1.Cl (stereo not given) , thanks.
Result string: 96

Query string: Need Inhibition of Cc1ccc(Cn2ncc(N3CC(C)NC(C)C3)c(Cl)c2=O)cc1NC(=O)Nc1ccc(-c2ccccc2)cc1.O=C(O)C(F)(F)F (stereo not given) , thanks.
Result string: 100

Query string: Need Inhibition of O=C1Nc2cccc3c2C1(CCCCCN1CCC(c2c[nH]c4ccncc24)CC1)CCC3 (stereo not given) , thanks.
Result string: 95

Query string: Need Inhibition of COc1ccccc1Nc1nc(C)cc(NCc2ccc(-n3ccnc3)cc2)n1 , thanks.
Result string: 90

Query string: Need Inhibition of O=C(/C=C/c1ccccc1O)NCCCCCN1CCC(c2c[nH]c3ccccc23)CC1 , thanks.
Result string: 95

Query string: Need Inhibition of NC(=O)C1CCN(Cc2cccc(-c3cccc(-c4nc5cc(C(F)(F)F)ccc5[nH]4)c3)c2)CC1.O=C(O)C(F)(F)F , thanks.
Result string: 100

Query string: Need Inhibition of CCOc1cc(C(=O)Nc2ccc3nc(N4CCN(C)CC4)cc(C)c3c2)cc(OCC)c1OCC , thanks.
Result string: 97

Query string: Need Inhibition of CC(C)c1cc(Oc2c(I)cc(CCNCc3ccccc3)cc2I)ccc1O.Cl , thanks.
Result string: 95

Query string: Need Inhibition of Cc1ccc(O)cc1Nc1ccnc2cc(-c3csc(CN4CCN(C)CC4)n3)ccc12 , thanks.
Result string: 100

Query string: Need Inhibition of Cc1noc(C)c1S(=O)(=O)N(C)Cc1ccc(-c2ccc(Cl)cc2)o1 , thanks.
Result string: 100

Query string: Need Inhibition of Cc1ccc(NC(=O)C2CCC2)cc1-c1ccc(C(=O)NCC2CC2)cc1 , thanks.
Result string: 98

Query string: Need Inhibition of Cc1cc(C2CCN(CCCCNC(=O)c3ccc(NC(=O)c4ccc(Cl)cc4)cc3)CC2)c(C)cc1OCc1ccccn1.Cl , thanks.
Result string: 96

Query string: Need Inhibition of CC(C)(C)c1ccc(CN2CCC(CNC(=O)c3cc(-c4ccccc4Cl)cs3)C2)cc1.O=C(O)C(F)(F)F (stereo not given) , thanks.
Result string: 100

Query string: Need Inhibition of Oc1ccc(OCc2ccccn2)cc1 , thanks.
Result string: 98

Query string: Need Inhibition of CN1CCCc2ccc(NC(=O)Nc3ccc(-c4ccccc4)cc3)cc2C1 , thanks.
Result string: 97

Query string: Need Inhibition of CC1(C)CC(NC(=O)NC2CCN(Cc3ccccc3)CC2)CC(C)(CNC(=O)NC2CCN(Cc3ccccc3)CC2)C1 (stereo not given) , thanks.
Result string: 93

Query string: Need Inhibition of COc1cc(C(=O)NC2CCN(Cc3ccccc3)CC2)ccc1-c1nc2c(Cl)cc(C(F)(F)F)cc2[nH]1 , thanks.
Result string: 100

Query string: Need Inhibition of O=C(NC(c1ccccc1)c1ccc2cccnc2c1O)c1ccccc1 (stereo not given) , thanks.
Result string: 94

Query string: Need Inhibition of COc1ccc2nccc(N(C)CC3(O)CCC(NCc4cc5c(cn4)OCCO5)CC3)c2n1.Cl (stereo not given) , thanks.
Result string: 99

Query string: Need Inhibition of O=C(C=Cc1ccc(Br)cc1)N1CCC(CCN2CCC(c3c[nH]c4ccccc34)CC2)CC1 , thanks.
Result string: 98

Query string: Need Inhibition of CCCC1(NC[C@@H](O)[C@H](Cc2ccccc2)NC(=O)c2cc(NCC)cc(N3CCCCS3(=O)=O)c2)CC1.Cl , thanks.
Result string: 98

Query string: Need Inhibition of Cc1ccc(NC(=O)c2ccc3ncccc3c2)cc1OC1CCN(Cc2ccc(F)cc2)CC1.O=C(O)C(F)(F)F , thanks.
Result string: 91

Query string: Need Inhibition of COc1cc2c(cc1NC(=O)CN1CCN(C(=O)c3ccco3)CC1)oc1ccccc12 , thanks.
Result string: 96

Query string: Need Inhibition of CCc1ccc(C(=O)Nc2cccc(CN3CCCN(Cc4ccc(O)cc4)CC3)c2)cc1.O=C(O)C(F)(F)F , thanks.
Result string: 100

Query string: Need Inhibition of CCC[C@@H](/C=N/N(C)C(=O)OC(C)(C)C)NC(=O)[C@H](CC(C)C)NC(=O)c1cc2cccc(OC)c2o1 , thanks.
Result string: 88

Query string: Need Inhibition of CN(c1ccc2c(c1)nc(Nc1ccc(Cl)cc1)n2C)c1ccnc(Nc2ccc(CS(C)(=O)=O)cc2)n1.Cl , thanks.
Result string: 97

Measured values drawn from ChEMBL document CHEMBL1157539 for this set.
